Molecular target: FGFR3 (UniProt P22607)
Sequence (P22607 whole entry, looked up): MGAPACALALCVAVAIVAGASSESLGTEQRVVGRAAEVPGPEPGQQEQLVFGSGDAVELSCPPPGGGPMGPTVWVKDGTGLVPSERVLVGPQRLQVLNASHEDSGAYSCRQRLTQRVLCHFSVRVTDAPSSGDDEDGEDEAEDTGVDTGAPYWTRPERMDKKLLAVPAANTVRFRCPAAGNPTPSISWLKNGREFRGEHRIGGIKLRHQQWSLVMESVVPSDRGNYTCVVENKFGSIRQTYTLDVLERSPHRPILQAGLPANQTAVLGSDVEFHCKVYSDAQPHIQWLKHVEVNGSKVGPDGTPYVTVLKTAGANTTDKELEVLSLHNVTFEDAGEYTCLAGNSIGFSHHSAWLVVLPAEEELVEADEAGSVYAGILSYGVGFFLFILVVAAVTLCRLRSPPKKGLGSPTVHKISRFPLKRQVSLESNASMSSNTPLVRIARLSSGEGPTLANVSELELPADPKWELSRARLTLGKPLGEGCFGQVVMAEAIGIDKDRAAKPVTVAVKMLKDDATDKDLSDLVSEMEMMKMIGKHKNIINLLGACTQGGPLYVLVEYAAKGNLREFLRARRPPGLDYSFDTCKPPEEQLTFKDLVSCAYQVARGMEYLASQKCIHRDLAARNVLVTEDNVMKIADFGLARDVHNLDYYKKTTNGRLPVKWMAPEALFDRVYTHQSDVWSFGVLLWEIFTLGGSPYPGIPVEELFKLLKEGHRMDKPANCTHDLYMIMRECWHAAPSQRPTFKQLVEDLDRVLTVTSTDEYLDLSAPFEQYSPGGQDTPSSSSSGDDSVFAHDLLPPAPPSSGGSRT
Assay: phosphorylation enrichment, bacterial display (enrichment ratio); higher = better substrate or ligand; peptides without Tyr show the background;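 also: 11-residue human phosphosite peptides and single-mutation variants displayed on the E. coli surface, counted by deep sequencing, each peptide's frequency after selection divided by its frequency in the unselected input library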;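 also: frequency after pTyr selection over input frequency; kinase dosed for 20-30% of maximal phosphorylation in three min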
Label 1 when phosphorylation enrichment is at or above 0.8; otherwise label -1.

Study these solved cases before continuing.
{"Primary Sequence": "QRTMKYTTATG [MCCC1_Y41]", "Answer Label": -1}
{"Primary Sequence": "IYQASYYRRGD [LTK_Y676_R673Q]", "Answer Label": -1}

Asked: Is phosphorylation enrichment at least 0.8? Consider STSFDYCRVPM [BST2_Y8_YF]
Given back: 1

Asked: Is phosphorylation enrichment at least 0.8? Consider ILTYKYLQKPM [KIT_Y547]
Given back: -1

Asked: Is phosphorylation enrichment at least 0.8? Consider GHLFACDWISI [BEST1_Y227_Y227C_YF]
Given back: -1

Asked: Is phosphorylation enrichment at least 0.8? Consider DNEALYDICFC [TUBB3_Y208_R213C]
Given back: 1

Asked: Is phosphorylation enrichment at least 0.8? Consider SDFSRYARTSI [TERT_Y949_S948R_YF]
Given back: -1

----------
Task for the reader: assign each of the following sequences its reported phosphorylation enrichment.
Target: EPHB1 (UniProt P54762)
Sequence (P54762 whole entry, looked up): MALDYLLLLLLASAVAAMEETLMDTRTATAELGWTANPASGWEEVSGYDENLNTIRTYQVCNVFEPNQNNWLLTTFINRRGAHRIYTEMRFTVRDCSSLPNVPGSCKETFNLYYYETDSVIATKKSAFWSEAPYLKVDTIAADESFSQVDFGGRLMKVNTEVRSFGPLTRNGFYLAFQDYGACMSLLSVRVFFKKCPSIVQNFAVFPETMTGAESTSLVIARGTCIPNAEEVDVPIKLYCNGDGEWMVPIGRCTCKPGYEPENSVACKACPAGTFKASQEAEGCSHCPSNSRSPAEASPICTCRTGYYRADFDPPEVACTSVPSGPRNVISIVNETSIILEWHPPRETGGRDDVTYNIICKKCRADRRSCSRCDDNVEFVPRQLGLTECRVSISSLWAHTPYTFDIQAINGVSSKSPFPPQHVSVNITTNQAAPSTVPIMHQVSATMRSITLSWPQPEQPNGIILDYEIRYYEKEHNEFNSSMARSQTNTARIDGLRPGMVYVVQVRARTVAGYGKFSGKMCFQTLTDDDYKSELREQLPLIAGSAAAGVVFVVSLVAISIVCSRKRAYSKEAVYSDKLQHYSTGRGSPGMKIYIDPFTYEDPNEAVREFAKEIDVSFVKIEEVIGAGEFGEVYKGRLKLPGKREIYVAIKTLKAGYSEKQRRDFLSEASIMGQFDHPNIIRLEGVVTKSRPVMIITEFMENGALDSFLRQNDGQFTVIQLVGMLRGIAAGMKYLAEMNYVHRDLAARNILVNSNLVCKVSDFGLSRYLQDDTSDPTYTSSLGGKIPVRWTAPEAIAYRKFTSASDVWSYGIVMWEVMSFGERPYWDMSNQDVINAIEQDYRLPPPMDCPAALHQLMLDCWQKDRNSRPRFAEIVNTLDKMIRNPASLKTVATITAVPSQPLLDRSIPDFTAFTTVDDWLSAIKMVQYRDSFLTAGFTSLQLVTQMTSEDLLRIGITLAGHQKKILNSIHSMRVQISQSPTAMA
Experiment: phosphorylation enrichment, bacterial display (enrichment ratio); higher = better substrate or ligand; peptides without Tyr show the background
Answers are plain numbers.

{"Primary Sequence": "REGAKYVSHCA [ASS1_Y113_G117C]", "Experimental Endpoint": "phosphorylation enrichment", "Result": 0.618}
{"Primary Sequence": "NETNKYQISVN [FGB_Y368_A365T]", "Experimental Endpoint": "phosphorylation enrichment", "Result": 0.427}
{"Primary Sequence": "RYVTRHIYNRE [HLA-DQB1_Y62_Y62H]", "Experimental Endpoint": "phosphorylation enrichment", "Result": 0.525}
{"Primary Sequence": "PPSGEYFGHCG [TRIP6_Y275_Q278H]", "Experimental Endpoint": "phosphorylation enrichment", "Result": 0.85}
{"Primary Sequence": "TVQVAYYTVMM [SPATA17_Y83_M86V]", "Experimental Endpoint": "phosphorylation enrichment", "Result": 2.96}
{"Primary Sequence": "KVITDYFVDMK [MPP4_Y566_YF]", "Experimental Endpoint": "phosphorylation enrichment", "Result": 0.429}
{"Primary Sequence": "LIHLHYIRKDY [BBS4_Y43]", "Experimental Endpoint": "phosphorylation enrichment", "Result": 0.602}
{"Primary Sequence": "YPSLPYSPVSS [CAMKK2_Y128_C123Y]", "Experimental Endpoint": "phosphorylation enrichment", "Result": 0.436}

Each sequence below has a reported value. Please supply its phosphorylation enrichment.
1. KRLAVYIDEEA [EPM2A_Y304_P301L]
2. KSEMSYIDGEK [SORBS1_Y485]
3. MSNVPYVMNRG [ACAT1_Y161]
4. NAGDFYDLFGG [PTPN11_Y63_T59A_YF]
5. EAVSIYQFHGQ [CBLC_Y402]
6. HRNNNYEPNLF [BRCA2_Y57_K53R]
7. VDSAHYKLLET [DTX3L_Y385]
8. KDQGIYEDYVE [MYL6_Y86_T85I]

Given back:
1: 0.665; 2: 0.72; 3: 0.368; 4: 0.651; 5: 2.31; 6: 1.07; 7: 0.355; 8: 0.74

Each sequence below has a reported value. Please supply its phosphorylation enrichment.
1. SSPQLYLVPFL [TAF4_Y652_P651L]
2. AEMTGYVMTRW [MAPK13_Y182_V184M]
3. PQAVTYAEVKH [LILRB4_Y360_K362E]
4. YIPSNYVAEDR [FRK_Y104]

Given back:
1: 4.26; 2: 0.656; 3: 1.94; 4: 0.519
